I'd appreciate it if you could supply interaction score values for the items below.
# STUDY_TARGET: T1, 4H492-bH
# T1 chain: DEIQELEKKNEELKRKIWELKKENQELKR
# EXPERIMENTAL_PROTOCOL: two-hybrid library CCNG1;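 note: natural log of median RNA to DNA barcode read ratio; higher means stronger binding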

Some solved entries appear below for comparison.
Task: Can you share its interaction score? I mean this binder: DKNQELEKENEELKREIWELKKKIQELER [4H3277-bH]
Output: -0.305

Task: // repeat for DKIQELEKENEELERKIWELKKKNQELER [4H2223-bH] and report
Output: -0.847

Return reported interaction score values for all items listed beneath this line.
1. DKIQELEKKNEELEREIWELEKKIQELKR [4H2438-bH]
2. DEIQELEKEIEELERKIWELEKKNQELKR [4H40-bH]

Output:
-0.644
0.0489
